- TARGET_SYSTEM: T1, monkey Trop2 protein (Sino Biological, #90893-C08H) (monkey, UniProt A0A2K5UE71 27-274)
- T1 construct: bought protein; also called monkey Trop2 protein antigen (His tag)
- T1 sequence: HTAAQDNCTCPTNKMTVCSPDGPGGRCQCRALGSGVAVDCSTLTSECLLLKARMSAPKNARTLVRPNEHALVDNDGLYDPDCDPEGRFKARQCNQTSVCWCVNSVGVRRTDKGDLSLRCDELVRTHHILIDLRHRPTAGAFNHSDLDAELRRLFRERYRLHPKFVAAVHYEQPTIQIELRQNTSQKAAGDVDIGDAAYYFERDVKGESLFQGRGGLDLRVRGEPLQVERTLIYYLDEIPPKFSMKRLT
- METHOD_NOTES: BLI, Octet RED96, AHC sensor
In this section we review reported koff values for a set of binders.
Write down the numeric answer in s⁻¹ and omit the unit.

# BINDER, READOUT_UNITS, koff
rows = [
    ("PR001143 (antibody, human IgG1, kappa, V domains shown, fully human IgG1/kappa; also called antibody No. (10)) VH: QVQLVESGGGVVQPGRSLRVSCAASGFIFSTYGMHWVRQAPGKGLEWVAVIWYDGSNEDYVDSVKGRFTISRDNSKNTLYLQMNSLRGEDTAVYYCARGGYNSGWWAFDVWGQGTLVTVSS VL: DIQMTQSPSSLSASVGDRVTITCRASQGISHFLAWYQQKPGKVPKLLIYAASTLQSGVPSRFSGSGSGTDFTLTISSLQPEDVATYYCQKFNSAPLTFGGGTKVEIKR", "s⁻¹", 0.000645),
    ("PR001150 (antibody, human IgG1, kappa, V domains shown, fully human IgG1/kappa; also called antibody No. (13)) VH: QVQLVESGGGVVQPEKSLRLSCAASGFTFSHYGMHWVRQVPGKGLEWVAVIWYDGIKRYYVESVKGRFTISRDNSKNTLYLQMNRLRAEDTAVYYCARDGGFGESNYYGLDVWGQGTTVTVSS VL: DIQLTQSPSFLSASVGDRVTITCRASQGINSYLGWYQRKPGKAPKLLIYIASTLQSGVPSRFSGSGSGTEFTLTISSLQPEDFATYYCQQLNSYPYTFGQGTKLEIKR", "s⁻¹", "3.41e-05"),
    ("PR001142 (antibody, human IgG1, kappa, V domains shown, fully human IgG1/kappa; also called antibody No. (9)) VH: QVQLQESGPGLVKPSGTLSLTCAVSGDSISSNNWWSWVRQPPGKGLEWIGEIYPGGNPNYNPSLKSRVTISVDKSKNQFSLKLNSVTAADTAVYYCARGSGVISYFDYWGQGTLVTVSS VL: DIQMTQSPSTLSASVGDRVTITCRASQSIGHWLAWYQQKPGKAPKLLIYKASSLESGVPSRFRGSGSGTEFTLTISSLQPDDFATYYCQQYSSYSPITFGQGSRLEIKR", "s⁻¹", "4.29e-05"),
]

Read the next record carefully.
[in] Using the record for PR001152 (antibody, human IgG1, kappa, V domains shown, fully human IgG1/kappa; also called antibody No. (15)) VH: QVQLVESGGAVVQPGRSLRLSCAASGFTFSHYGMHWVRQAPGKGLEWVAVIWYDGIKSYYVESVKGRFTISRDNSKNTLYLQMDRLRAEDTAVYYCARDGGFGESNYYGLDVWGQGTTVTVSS VL: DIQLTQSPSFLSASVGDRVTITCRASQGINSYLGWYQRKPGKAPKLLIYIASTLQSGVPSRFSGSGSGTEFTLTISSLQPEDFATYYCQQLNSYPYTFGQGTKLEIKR , report its koff.
[out] 0.000105
